measured.target: PAK3 (Homo sapiens)
Sequence (O75914 1-544 isoform O75914-2): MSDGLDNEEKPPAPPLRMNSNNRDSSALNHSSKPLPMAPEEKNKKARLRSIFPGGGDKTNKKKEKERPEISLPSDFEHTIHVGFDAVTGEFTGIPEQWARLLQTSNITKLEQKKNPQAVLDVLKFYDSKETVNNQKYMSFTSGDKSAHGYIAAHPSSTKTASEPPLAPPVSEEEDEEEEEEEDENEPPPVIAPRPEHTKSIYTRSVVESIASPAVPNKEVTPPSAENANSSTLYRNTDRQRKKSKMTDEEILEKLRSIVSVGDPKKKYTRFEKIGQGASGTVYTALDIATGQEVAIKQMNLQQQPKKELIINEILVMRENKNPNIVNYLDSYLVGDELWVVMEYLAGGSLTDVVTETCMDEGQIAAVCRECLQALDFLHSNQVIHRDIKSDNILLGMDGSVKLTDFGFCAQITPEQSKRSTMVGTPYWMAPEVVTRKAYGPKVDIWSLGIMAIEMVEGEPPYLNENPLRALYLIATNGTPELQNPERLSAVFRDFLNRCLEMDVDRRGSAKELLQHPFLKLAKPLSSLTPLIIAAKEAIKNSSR
protocol.text: In vitro PAK inhibition assay (Z'-LYTE, SelectScreen), PAK3
Type: biochemical
details: read-out: PAK3 IC50
Reported IC50 values for the following molecules.

# molecule, IC50
rows = [
    ("CCn1c(=O)c(-c2ccc(-c3nccnc3C)cc2Cl)cc2cnc(NC3CCNC(=O)C3)nc21 (stereo not drawn)", "50 to 500 nM"),
    ("CCn1c(=O)c(-c2ccc(-c3cncc(C)n3)cc2Cl)cc2cnc(N[C@H]3CC[C@H](CN(C)C)CC3)nc21", "< 50 nM"),
    ("CCn1c(=O)c(-c2ccc(-c3noc(C)n3)cc2Cl)cc2cnc(NCCC3CCNCC3)nc21", "50 to 500 nM"),
    ("O=c1c(-c2ccc(-c3cccnc3)cc2Cl)cc2cnc(NC3CCOCC3)nc2n1Cc1ccccc1C(F)(F)F", "50 to 500 nM"),
    ("Cc1cncc(-c2ccc(-c3cc4cnc(NCC(C)C)nc4n([C@H]4CC[C@H](N)CC4)c3=O)c(Cl)c2)n1", "< 50 nM"),
    ("CCn1c(=O)c(-c2ccc(-c3cnccn3)cc2Cl)cc2cnc(N[C@@H]3CCOC3)nc21", "500 to 5000 nM"),
    ("Cc1cncc(-c2ccc(-c3cc4cnc(N[C@@H]5CCOC5)nc4n(CCN4CCCC4)c3=O)c(Cl)c2)n1", "500 to 5000 nM"),
    ("CCNc1ncc2cc(-c3ccc(-c4nccnc4C)cc3Cl)c(=O)n(CC)c2n1", "50 to 500 nM"),
    ("CCn1c(=O)c(-c2ccc(-c3cncc(C)n3)cc2Cl)cc2cnc(NC3CCC(CCN)CC3)nc21 (stereo not drawn)", "50 to 500 nM"),
    ("CCn1c(=O)c(-c2ccc(-c3nccnc3C)cc2Cl)cc2cnc(N[C@H]3CCOC(C)(C)C3)nc21 (stereo in doubt)", "50 to 500 nM"),
    ("Cc1cncc(-c2ccc(-c3cc4cnc(N[C@@H]5CCOC5)nc4n(C4CCNCC4)c3=O)c(Cl)c2)n1", "50 to 500 nM"),
    ("Cc1cncc(-c2ccc(-c3cc4cnc(N[C@H]5CCOC5)nc4n(C4CCNCC4)c3=O)c(Cl)c2)n1", "50 to 500 nM"),
    ("CCn1c(=O)c(-c2ccc(-c3cccnc3)cc2Cl)cc2cnc(NC3CCOCC3)nc21", "50 to 500 nM"),
    ("CCn1c(=O)c(-c2ccc(-c3noc(C)n3)cc2Cl)cc2cnc(NCCC3CCN(C)CC3)nc21", "50 to 500 nM"),
    ("CCn1c(=O)c(-c2ccc(-c3nccnc3C)cc2Cl)cc2cnc(NC3CCSCC3)nc21", "50 to 500 nM"),
]
